B1: HDAC6 (parent)
chain: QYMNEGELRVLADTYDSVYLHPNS

- Variants of: B1
- experimental protocol: protein stability index of a GFP-peptide fusion (GPS, HEK-293T) (PSI 1-6); higher = more stable;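 also: lentivirally expressed fusions sorted by FACS into six bins by GFP to DsRed ratio, PSI derived from sequencing read proportions per bin multiplied by bin number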
- setup conditions: c terminus: a fixed tail appended
Category scheme (protein stability index): LOW (below 2), MEDIUM (2 to below 3), HIGH (3 or more)

Observe how each entry below is paired with its result.
[[record]]
mutation_key = "L11S"
class_label = "LOW"

[[record]]
mutation_key = "Y15P"
class_label = "LOW"

[[record]]
mutation_key = "L11W"
class_label = "MEDIUM"

[[record]]
mutation_key = "R9T"
class_label = "MEDIUM"

[[record]]
mutation_key = "M3V"
class_label = "HIGH"

[[record]]
mutation_key = "V18D"
class_label = "MEDIUM"

[[record]]
mutation_key = "L20Q"
class_label = "MEDIUM"

[[record]]
mutation_key = "P22C"
class_label = "LOW"


Q: Please let me know in which category the item T14L belongs.
Ans: LOW

Q: Bin this entry: E5F
Ans: LOW

Q: Which category does the recorded protein stability index put Y2K in?
Ans: HIGH

Q: Band assignment needed for L11A please.
Ans: LOW

All values here come from the supplement of paper PMC10567573.
